These data points were gathered from paper PMC7156367.

Biological target: T1, Fetuin, fluorescent labelled (microscale thermophoresis) (bovine, UniProt P12763 19-359, fluorescent label)
T1 construct: fetuin
T1 sequence (looked up): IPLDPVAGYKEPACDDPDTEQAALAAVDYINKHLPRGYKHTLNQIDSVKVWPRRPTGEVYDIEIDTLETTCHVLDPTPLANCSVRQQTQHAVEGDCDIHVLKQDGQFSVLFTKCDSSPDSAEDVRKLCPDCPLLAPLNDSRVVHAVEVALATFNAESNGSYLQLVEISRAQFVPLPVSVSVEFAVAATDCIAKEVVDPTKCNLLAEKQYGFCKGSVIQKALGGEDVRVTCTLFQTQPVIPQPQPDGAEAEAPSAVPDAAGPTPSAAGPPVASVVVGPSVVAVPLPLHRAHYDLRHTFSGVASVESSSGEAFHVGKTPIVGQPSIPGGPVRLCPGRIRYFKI
Assay: MST; fluorescent labelled host protein, peptide titrated; thermophoresis 30 s, 40%, 60% and 80% MST power
Conditions: both partners purified
Assay readout: pKd
Numbers only, as −log10 of the molar value.

*Q* Consider the binder TSAAKPGAPRPPVPPKPGAPKPPVQPPKKPA (P1 adhesin (Mpn141) of M. pneumoniae, residues 1597-1627; without any tags; also called C-terminal 30 amino acids; P1 tail; source: synthetic peptide (Chempeptide Limited, China)) [P1-30, synthetic C-terminal peptide of P1 adhesin] and give its recorded pKd.
*A* 5.62
